tested on: KM-20L2; assay: NCI tumour cell line growth inhibition, 48 h
Calls of active or inactive are those of the source. Rule as the data show it: active = GI50 up to about 1.1 µM and inactive = higher.
Possible outcomes: active, inactive

molecule | assigned class
CS/C(=N\c1ccccc1)N(c1ccccc1)c1nc(=[N+](C)C)ss1.[O-][Cl+3]([O-])([O-])[O-] | active
O=C(c1ccc(O)cc1O)C1C(c2ccc(O)cc2)OC(c2ccc(O)cc2)C1C(=O)c1ccc(O)cc1O (stereo not given) | inactive
CCCCCC(=O)OC[n+]1ccc2c(C)c3[nH]c4ccc(OC)cc4c3c(C)c2c1 | inactive
COC(=O)C(Cc1nc2ccccc2nc1O)C(=O)C(=O)Nc1ccc(F)cc1 (stereo not given) | inactive
NNC(=O)CCC(=O)Nc1ccc(Cl)cc1Cl | inactive
O=P(Nc1cccc(Cl)c1)(Oc1ccccc1)N(CCCl)CCCl (stereo not given) | inactive
Cc1c(CNc2ccc(Cl)c(C(=O)NC(CC(=O)O)C(=O)O)c2)ccc2nc(N)nc(N)c12 (stereo not given) | active
COc1ccc2c3ccc4c(c3n(C)c2c1)C(=O)C=CC4=O | inactive
CN1CCN(c2ccc3[nH]c(-c4ccc5[nH]c(-c6ccc(O)cc6)nc5c4)nc3c2)CC1 | inactive
c1ccc2c(c1)C1=NCCN1c1ccccc1-2 | inactive
